- TARGET_DESC: T1, PSLVKSK(biotin) peptide (PXLVKSK(biotin), X = Ser)
- T1 construct: also called Ser at P2
- T1 peptide: PSLVKSK(Biotin)
- EXPERIMENTAL_DETAILS: BLI, biotinylated peptide on streptavidin biosensor
No end group written: not given here. *: point of attachment. Biotin = O=C1N[C@H]2[C@H](CS[C@H]2CCCCC(=O)*)N1
% of steady-state BLI signal retained relative to PGLVKSK(biotin) values for the binders below.

Check out these entries, answers already filled in.
GID4 A252V-S253T-S283F triple mutant variant (residues 116-300), purified with N-terminal His-tag (designed binder, not shown: N-terminal six-histidine tag and TEV protease recognition site from the pET21(+) construct) GVATSLLYSGSKFRGHQKSKGNSYDVEVVLQHVDTGNSYLCGYLKIKGLTEEYPTLTTFFEGEIISKKHPFLTRKWDADEDVDRKHWGKFLAFYQYAKSFNSDDFDYEELKNGDYVFMRWKEQFLVPDHTIKDISGVTFAGFYYICFQKSAASIEGYYYHRSSEWYQFLNLTHVPEHSAPIYEFR: > 58%
GID4 S283F variant (residues 116-300), purified with N-terminal His-tag (designed binder, not shown: N-terminal six-histidine tag and TEV protease recognition site from the pET21(+) construct) GVATSLLYSGSKFRGHQKSKGNSYDVEVVLQHVDTGNSYLCGYLKIKGLTEEYPTLTTFFEGEIISKKHPFLTRKWDADEDVDRKHWGKFLAFYQYAKSFNSDDFDYEELKNGDYVFMRWKEQFLVPDHTIKDISGASFAGFYYICFQKSAASIEGYYYHRSSEWYQFLNLTHVPEHSAPIYEFR: 40%
GID4 A252V-S283F double mutant variant (residues 116-300), purified with N-terminal His-tag (designed binder, also called A252V-S283F mutant; not shown: N-terminal six-histidine tag and TEV protease recognition site from the pET21(+) construct) GVATSLLYSGSKFRGHQKSKGNSYDVEVVLQHVDTGNSYLCGYLKIKGLTEEYPTLTTFFEGEIISKKHPFLTRKWDADEDVDRKHWGKFLAFYQYAKSFNSDDFDYEELKNGDYVFMRWKEQFLVPDHTIKDISGVSFAGFYYICFQKSAASIEGYYYHRSSEWYQFLNLTHVPEHSAPIYEFR: > 58%
GID4 A252V-S253T double mutant variant (residues 116-300), purified with N-terminal His-tag (designed binder, also called A252V-S253T mutant; not shown: N-terminal six-histidine tag and TEV protease recognition site from the pET21(+) construct) GVATSLLYSGSKFRGHQKSKGNSYDVEVVLQHVDTGNSYLCGYLKIKGLTEEYPTLTTFFEGEIISKKHPFLTRKWDADEDVDRKHWGKFLAFYQYAKSFNSDDFDYEELKNGDYVFMRWKEQFLVPDHTIKDISGVTFAGFYYICFQKSAASIEGYYYHRSSEWYQSLNLTHVPEHSAPIYEFR: > 58%

Note: attention shifts to another entry.
# lookup: % of steady-state BLI signal retained relative to PGLVKSK(biotin) of GID4 A252V variant (residues 116-300), purified with N-terminal His-tag (designed binder, not shown: N-terminal six-histidine tag and TEV protease recognition site from the pET21(+) construct) GVATSLLYSGSKFRGHQKSKGNSYDVEVVLQHVDTGNSYLCGYLKIKGLTEEYPTLTTFFEGEIISKKHPFLTRKWDADEDVDRKHWGKFLAFYQYAKSFNSDDFDYEELKNGDYVFMRWKEQFLVPDHTIKDISGVSFAGFYYICFQKSAASIEGYYYHRSSEWYQSLNLTHVPEHSAPIYEFR
> 65%
